assay: Reactivity Profiling with Glutathione (GSH), half-life by HPLC; details: 5 mM glutathione, 25° C., HPLC
OUTCOME MEASURE: Tl/2- GSH

Completed entries (count: 4):
CC(C)(C)c1cc(CN(C(=O)CN(Cc2ccc(Cl)cc2)S(=O)(=O)c2c(F)c(F)c(F)c(F)c2F)c2ccc(C(=O)O)c(O)c2)cc(C(C)(C)C)c1	B (247≤B<554)
CN(C(=O)CN(Cc1ccccc1C(F)(F)F)S(=O)(=O)c1c(F)c(F)c(F)c(F)c1F)c1ccc(C(=O)O)cc1N1CCOCC1	D (0.1<D<142)
CC(C)(C)c1cc(CN(C(=O)CN(Cc2ccc(Cl)cc2)S(=O)(=O)c2c(F)c(F)c(F)c(F)c2F)c2ccc(C(=O)O)c(O)c2)cc(C2CCC2)c1	B (247≤B<554)
CN(C(=O)CN(Cc1ccccc1C(F)(F)F)S(=O)(=O)c1c(F)c(F)c(F)c(F)c1F)c1ccc(C(=O)O)cc1OC1CC1	D (0.1<D<142)

Please examine the following record next.
Short answer for O=C(O)c1ccc(N(Cc2ccccc2)C(=O)CN(Cc2ccc(Cl)cc2)S(=O)(=O)c2c(F)c(F)c(F)c(F)c2F)cc1O : Tl/2- GSH was D (0.1<D<142)

###

Item-by-item account of IC50
system: MV4-11 cells; assay: MV4-11 Cell Cytotoxicity Assay (CellTiter-Blue, 72 h); assay type: cell-based, human; details: Homo sapiens; MV4-11 cells, 72 h, CellTiter-Blue; read-out: IC50- MV-4-11

Completed entries (count: 5):
CC(C)COc1cc(CN(C(=O)CN(Cc2ccc(Cl)cc2)S(=O)(=O)c2c(F)c(F)c(F)c(F)c2F)c2ccc(C(=O)O)c(O)c2)cc(OCC(C)C)c1	3.16 to 100 µM
CC(C)(C)c1cc(CN(C(=O)CN(Cc2ccccc2)S(=O)(=O)c2c(F)c(F)c(F)c(F)c2F)c2ccc(C(=O)O)c(O)c2)cc(C(C)(C)C)c1	1 to 3.16 µM
CN(C(=O)CN(Cc1ccccc1C(F)(F)F)S(=O)(=O)c1c(F)c(F)c(F)c(F)c1F)c1ccc(C(=O)O)cc1N1CCOCC1	1 to 3.16 µM
CC(C)(C)c1cc(CN(C(=O)CN(Cc2ccc(Cl)cc2)S(=O)(=O)c2c(F)c(F)c(F)c(F)c2F)c2ccc(C(=O)O)c(O)c2)cc(C2CCC2)c1	3.16 to 100 µM
CN(C(=O)CN(Cc1ccccc1C(F)(F)F)S(=O)(=O)c1c(F)c(F)c(F)c(F)c1F)c1ccc(C(=O)O)cc1OC1CC1	1 to 3.16 µM

Please examine the following record next.
Short answer for CC(C)(C)c1cc(CN(C(=O)CN(C23CC(C2)C3)S(=O)(=O)c2c(F)c(F)c(F)c(F)c2F)c2ccc(C(=O)O)c(O)c2)cc(C2CC2)c1 : IC50 was 3.16 to 100 µM

###

system: glutathione (GSH); assay: Reactivity Profiling with Glutathione (GSH), half-life by HPLC; conditions: 5 mM glutathione (GSH) in IMDM with 10% FBS
OUTCOME MEASURE: half-life at 25 μM

Completed entries (count: 4):
COc1cc(C(=O)O)ccc1N(Cc1cc(C2CC2)cc(C(C)(C)C)c1)C(=O)CN(Cc1c(F)cc(F)cc1F)S(=O)(=O)c1c(F)c(F)c(F)c(F)c1F	4.12 to 9.23 h
COc1cc(O)ccc1N(Cc1cc(C2CC2)cc(C(C)(C)C)c1)C(=O)CN(Cc1cnccc1C(F)(F)F)S(=O)(=O)c1c(F)c(F)c(F)c(F)c1F	9.23 to 1670 h
Cc1cc(C(=O)O)ccc1N(Cc1cc(C2CC2)cc(C2CC2)c1)C(=O)CN(Cc1ccccc1C(F)(F)F)S(=O)(=O)c1c(F)c(F)c(F)c(F)c1F	4.12 to 9.23 h
O=C(O)c1ccc(N(Cc2cc(C3CC3)cc(C3CC3)c2)C(=O)CN(Cc2c(F)c(F)c(F)c(F)c2F)S(=O)(=O)c2c(F)c(F)c(F)c(F)c2F)c(C2CC2)c1	9.23 to 1670 h

Please examine the following record next.
Entry CC(C)(C)c1cc(CN(C(=O)CN(Cc2c(F)cccc2Cl)S(=O)(=O)c2c(F)c(F)c(F)c(F)c2F)c2ccc(C(=O)O)cc2OC2CC2)cc(C2CC2)c1 , glutathione (GSH) data, half-life at 25 μM value: 9.23 to 1670 h
